# STUDY SYSTEM: T1, His-tagged human TSLP antigen (huTSLP-his) (human)
# T1 construct: Secreted from HEK293E and purified on nickel; whole entry named; also called Human TSLP-his
# ASSAY DETAILS: ELISA, coated huTSLP-his;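 also: binding of antibodies to plate-bound TSLP read as absorbance at 450 nm after TMB colour development, EC50 derived from binding curves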
REPORTED ENDPOINT: EC50 (nM)
The reply should contain only the number, in nM.

## Task Reported EC50 for hu3-04 (antibody, human IgG1, kappa, V domains shown, IgG1-YTE, kappa) VH: EVQLVQSGAEVKKPGASVKVSCKASGYTFTDDYMNWVRQAPGQRLEWMGIISPYNGGTSYNQKFKGRVTLTVDKSASTAYMELSSLRSEDTAVYYCAREDYDYDGYAMDHWGQGTTVTVSS VL: EIVLTQSPATLSLSPGERATLSCRASSSVSYMHWYQQKPGQAPRLLIYATSNLASGIPARFSGSGSGTDFTLTISRLEPEDFAVYYCQQWSSNRTFGGGTKVEIKR : what is it?
## Result 0.435

## Task Follow-up entry: hu179-30 (antibody, human IgG1, kappa, V domains shown, IgG1-YTE, kappa) VH: EVQLVQSGAEVKKPGSSVKVSCKASGYTFSNYLIEWVRQAPGQGLEWIGVIDPGNGDTNYNENFKGRATLTADKSTSTAYIELSSLRSEDTAVYYCAREDNTGTAFDYWGQGTTVTVSS VL: DIVMTQSPDSLAVSLGERATINCKASQSVSSDVTWYQQKPGQSPKLLIYYVSNDYTGVPDRFSGSGSGTDFTLTISSLQAEDVAVYYCQQHHRFPLTFGQGTKLEIKR
## Result 0.246

Below: the item to evaluate.
## Task Looking for the measured EC50 of hu179-32 (antibody, human IgG1, kappa, V domains shown, IgG1-YTE, kappa) VH: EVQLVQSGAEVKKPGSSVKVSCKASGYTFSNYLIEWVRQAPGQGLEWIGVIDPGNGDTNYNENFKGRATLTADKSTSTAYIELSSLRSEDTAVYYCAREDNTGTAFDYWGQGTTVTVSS VL: DIVMTQSPDSLAVSLGERATINCKASQSVSSDVTWYQQKPGQSPKLLIYYVSNHETGVPDRFSGSGSGTDFTLTISSLQAEDVAVYYCQQHHRFPLTFGQGTKLEIKR , can you help?
## Result 0.145

This collection of values is drawn from patent US20240016931A1.
